# assay: Toxicity liver stage against HepG2, at 10uM
# Assay type: cell-based
# Parameters: test concentration 10 uM, cell line HepG2-A16-CD81EGFP
# assay_conditions: human, HepG2-A16-CD81EGFP cells; read-out: INHIBITION
Let's look at some molecules and their measured cytotoxicity at 10 µM.
Numbers only; they are read as %.

Here's what some known entries look like.
CCc1nnc(CN2CCCCC2Cn2cncn2)o1 (stereo unspecified) | -1.1
Cc1cn2c(n1)C(CNCc1ccc(C)s1)CCC2 (stereo unspecified) | -26.3
Cc1nc(C2CCCN(C(=O)c3c(C)nn4cccnc34)C2)no1 (stereo unspecified) | -7.62
COCCN1CCC2(CCN(C(=O)c3ccc(F)cc3)CC2)C1=O | 2.85
Cc1ccc(-c2csc3c(=O)[nH]c(N4CCCC(C(N)=O)C4)nc23)cc1 (stereo unspecified) | -3.09

# evaluate next
Challenge: What measured cytotoxicity at 10 µM goes with CCNc1ncc(C(=O)N2CCOC(CCCc3ccccc3)C2)cn1 (stereo unspecified) ?
Response given: 79.2
